- Tested on: M14 melanoma
- measurement.protocol: NCI tumour cell line growth inhibition, 48 h
reported.endpoint: TGI

Reported TGI for M14 melanoma, given COC1OC2COC(c3ccccc3)OC2C(OC(=S)c2ccccc2)C1O (stereo unspecified) ?
> 100 µM

Reported TGI for M14 melanoma, given `COc1ccc(OC)c(/C=C/C(=O)c2ccc(SC)cc2)c1` ?
27.1 µM

Reported TGI for M14 melanoma, given `Cc1cc(=O)oc2c(CN(CCCl)CCCl)c(O)ccc12` ?
> 100 µM

Reported TGI for M14 melanoma, given `COc1ccc2c(-c3csc(-c4c[nH]c5ccccc45)n3)c[nH]c2c1` ?
53.1 µM

Reported TGI for M14 melanoma, given `CCCN(CCC)c1c([N+](=O)[O-])cc(C(N)=O)cc1[N+](=O)[O-]` ?
> 100 µM

Reported TGI for M14 melanoma, given `Fc1ccc(-c2ncn(C3CCNCC3)c2-c2ccnc(Oc3ccc(Oc4ccccc4)cc3)n2)cc1` ?
7.99 µM

Reported TGI for M14 melanoma, given `CC(C)(C)C1=CC(O)(c2c3ccccc3c(C3(O)C=C(C(C)(C)C)C(=O)C(C(C)(C)C)=C3)c3ccccc23)C=C(C(C)(C)C)C1=O` ?
> 100 µM

Reported TGI for M14 melanoma, given `COc1ccc(-c2nc3ncccn3c2-c2ccc(S(C)(=O)=O)cc2)cc1` ?
> 100 µM

Reported TGI for M14 melanoma, given CCCCOc1nc2ccccc2cc1C1CNC(=O)c2ccccc2N1 (stereo unspecified) ?
9.03 µM

Reported TGI for M14 melanoma, given COC(=O)C1=C(c2cc(OC)c(OC)c(OC)c2)OC(c2cc(OC)c(OC)c(OC)c2)C1 (stereo unspecified) ?
50 µM

Reported TGI for M14 melanoma, given `O=C1/C(=C/Cc2ccco2)N=C(c2ccccc2)N1c1nc2c(Cl)cc(Cl)cc2s1` ?
> 100 µM

Reported TGI for M14 melanoma, given `COC(=O)CCCCCCCCC(=O)c1c(C)[nH]c(/C=C2\N=C(c3ccc[nH]3)C=C2OC)c1C` ?
> 21.3 µM

Reported TGI for M14 melanoma, given `CCc1cc(Nc2nccc(-c3c(-c4ccc(OC)c(C(=O)Nc5c(F)cccc5F)c4)nc4ccccn34)n2)c(OC)cc1N1CCC(N2CCN(S(C)(=O)=O)CC2)CC1` ?
> 100 µM

Reported TGI for M14 melanoma, given c1ccc(C2C3=C(CCCC3)Nc3nnnn32)cc1 (stereo unspecified) ?
> 100 µM

Reported TGI for M14 melanoma, given `COc1cc(C)c(S(=O)(=O)N(CCCN)OCCCN)c(C)c1C` ?
65.2 µM

Reported TGI for M14 melanoma, given `Oc1cccc(-c2cn3cc(Cl)ccc3n2)c1` ?
> 100 µM

Reported TGI for M14 melanoma, given `CC1(C)CC(=O)C=C(NC(=O)c2ccccc2)C1` ?
> 100 µM

Reported TGI for M14 melanoma, given `O=[N+]([O-])C1(CO)COC2(OC1)c1ccccc1-c1ccccc12` ?
> 88.4 µM

Reported TGI for M14 melanoma, given `C/C(=C\COc1ccc2ccc(=O)oc2c1)CCC(=O)C(C)(C)O` ?
61.2 µM

Reported TGI for M14 melanoma, given O=C1CCC(=O)C(C(=O)CCC(=O)Nc2ccc(Cl)cc2)C1 (stereo unspecified) ?
> 100 µM

Reported TGI for M14 melanoma, given `CC(=O)[O-].CC(=O)[O-].CC(=O)[O-].CC(=O)[O-].CO.CO.CO.[Rh+2].[Rh+2].c1ccc(-c2ccccn2)nc1` ?
> 100 µM

Reported TGI for M14 melanoma, given `CCN(CC)c1ccc(/C=C2/NC(=O)NC2=O)cc1` ?
38.9 µM

Reported TGI for M14 melanoma, given `C/C(=N/NC(=O)c1ccccc1Nc1ccccc1C(=O)N/N=C(\C)c1ccc(C)cc1)c1ccc(C)cc1` ?
> 100 µM

Reported TGI for M14 melanoma, given `NC(=O)c1ccc(S(=O)(=NS(=O)(=O)c2ccccc2)c2ccc(C(N)=O)cc2)cc1` ?
> 100 µM

Reported TGI for M14 melanoma, given CC1CCCc2c(CC3CC(=O)NC(=O)C3)nc(N)nc21 (stereo unspecified) ?
> 100 µM

Reported TGI for M14 melanoma, given NC(=S)c1cn(C2OC(CO)C(O)C2O)c2ncnc(N)c12 (stereo unspecified) ?
0.354 µM

Reported TGI for M14 melanoma, given `NC(=O)c1nnc2c(F)cccc2c1N` ?
> 100 µM

Reported TGI for M14 melanoma, given `Cn1cc(C2=C(c3cn(C)c4cc(Cl)ccc34)C(=O)NC2=O)c2ccccc21` ?
> 25 µM

Reported TGI for M14 melanoma, given `CC(C)(CO)Nc1c(O)c2c(c(O)c1Cl)C(=O)C=CC2=O` ?
2.26 µM

Reported TGI for M14 melanoma, given `CN(C)/C=C/C(=O)c1cccc(C(=O)/C=C/N(C)C)n1` ?
> 100 µM

Reported TGI for M14 melanoma, given `N#CSc1cc(-c2nc3ccccc3o2)ccc1N` ?
80.4 µM

----------
- Test system: CCRF-CEM leukemia
- measurement.protocol: NCI tumour cell line growth inhibition, 48 h; in the data active means GI50 below about 0.43 µM; inactive means the rest
Choose one outcome from this list and give only that: yes = active, no = inactive

What classification did `N#CSc1cc(-c2nc3ccccc3o2)ccc1N` end up with in this test?
no

What classification did `COc1ccc(Nc2ccnc3cc(Cl)ccc23)cc1CN(CCCl)CCCl` end up with in this test?
no

What classification did `c1ccc2c(Nc3ccc4c(c3)OCO4)c3ccoc3nc2c1` end up with in this test?
no

What classification did `COC(=O)[C@@H](C)C[C@H](Cc1ccccc1)NC(=O)c1csc([C@@H](C[C@H](C(C)C)N(C)C(=O)[C@@H](NC(=O)CN(C)C)C2CC2)OC(C)=O)n1` end up with in this test?
yes

What classification did COC(=O)C([O][Ge]([CH3])([CH3])[CH3])c1ccccc1 (stereo unspecified) end up with in this test?
no

What classification did CCCCOc1nc2ccccc2cc1C1CNC(=O)c2ccccc2N1 (stereo unspecified) end up with in this test?
no

----------
- Test system: HT29 colon
- measurement.protocol: NCI tumour cell line growth inhibition, 48 h
Rule: TGI of 0.4 µM or more gives 1 (yes); anything lower gives 0 (no).

Say whether CCOC(=O)CCC(NC(=O)c1ccc(Nc2nc3cc(N)cc(N)c3nc2-c2ccccc2)cc1)C(=O)OCC (stereo not drawn) shows TGI of 0.4 µM or more.
1 (yes)

Say whether `O=C(/C=C/c1ccc(OCCCOc2ccc(/C=C/C(=O)c3ccc(Cl)cc3)cc2)cc1)c1ccc(Cl)cc1` shows TGI of 0.4 µM or more.
1 (yes)

Say whether `CCN(CC)C(=O)c1ccc(C)c(N=NN(C)C)c1` shows TGI of 0.4 µM or more.
1 (yes)

Say whether `COc1cc2ccc(C(=O)O)cc2cc1OC` shows TGI of 0.4 µM or more.
1 (yes)

Say whether `CO/C=C(/C(=O)OC)c1ccccc1[C@H]1C[C@@H]1c1ccccc1` shows TGI of 0.4 µM or more.
1 (yes)

Say whether `Cc1cnc2[nH]c(-c3sccc3C)cc(=O)c2c1` shows TGI of 0.4 µM or more.
1 (yes)

Say whether `COC(=O)C12CC(NC(=O)c3csc([C@@H](C[C@H](C(C)C)N(C)C(=O)[C@@H](NC(=O)[C@H]4CCCCN4C)C(C)C)OC(C)=O)n3)(C1)C2` shows TGI of 0.4 µM or more.
0 (no)

Say whether COc1cccc2c1C(=O)c1c(O)c3c(c(O)c1C2=O)C[C@@](O)(C(=O)CO)CC3OC1CC(NCCCCC(OC(C)=O)OC(C)=O)C(O)C(C)O1 (stereo partly drawn) shows TGI of 0.4 µM or more.
0 (no)

Say whether `CC(=O)O[C@H]1CC[C@]2(C=O)[C@H]3CC[C@]4(C)[C@@H](C5=CC(=O)OC5)CC[C@]4(O)[C@@H]3CC[C@]2(O)C1` shows TGI of 0.4 µM or more.
1 (yes)

Say whether N#CC(NNC(=O)c1c(Cl)c(Cl)c(Cl)c(Cl)c1-c1nc2ccc(C(=O)c3ccccc3)cc2[nH]1)c1cccc(Oc2ccccc2)c1 (stereo not drawn) shows TGI of 0.4 µM or more.
1 (yes)

Say whether `Clc1ccc2c(NCCNc3nc(Cl)nc4ccccc34)ccnc2c1` shows TGI of 0.4 µM or more.
0 (no)

Say whether COC1OC(=O)C(OC)C(OC)C1OC (stereo not drawn) shows TGI of 0.4 µM or more.
1 (yes)

Say whether `COc1ccc(Nc2ccnc3cc(Cl)ccc23)cc1CN(CCCl)CCCl` shows TGI of 0.4 µM or more.
1 (yes)

----------
- Tested on: HT29 colon
- measurement.protocol: NCI tumour cell line growth inhibition, 48 h
reported.endpoint: GI50

Fill blank: measured GI50 of the compound `O=C(N/N=C\c1cc(Br)cc(Br)c1O)N/N=C/c1cc(Br)cc(Br)c1O` is ____.
5930 nM

Fill blank: measured GI50 of the compound `CCOC(=O)Nc1ccc2nc(Sc3ccc(Cl)cc3)sc2c1` is ____.
518 nM

Fill blank: measured GI50 of the compound `CCN(CC)Cc1cc(Nc2c3ccc(Cl)cc3nc3c(C)cccc23)ccc1O` is ____.
888 nM

Fill blank: measured GI50 of the compound `COC(=O)CCCCCCCCC(=O)c1c(C)[nH]c(/C=C2\N=C(c3ccc[nH]3)C=C2OC)c1C` is ____.
32400 nM

Fill blank: measured GI50 of the compound `CN1CCN(Cc2ccc(NC(=O)c3cncc(C#Cc4cncc5[nH]ncc45)c3)cc2C(F)(F)F)CC1` is ____.
251 nM
